All figures here come from the supplement of paper PMC12042874.

assay: amyloid nucleation score (Sup35N fusion, yeast selection) (log enrichment); library NNK2; higher = more nucleation; inactive = no reads after selection;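 note: zero at mode of non-aggregating sequences after 7 days selection at 30°C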
PROPERTY_LABEL: amyloid nucleation score

ENTRY_SEQUENCE	PROPERTY_LABEL	REPORTED_RESULT
VRGAIVQKALDCKSVDKSLE	amyloid nucleation score	inactive
YNGPLHYDRNDSSVKQSVFI	amyloid nucleation score	inactive
KRNMSCVLYIWDWHPASLLM	amyloid nucleation score	inactive

* * *

test: amyloid nucleation score (Sup35N fusion, yeast selection) (log enrichment); library NNK3; higher = more nucleation; inactive = no reads after selection
PROPERTY_LABEL: amyloid nucleation score

SUBSTANCE	amyloid nucleation score
TLNVVPR	inactive
FCSRYWLYLCRALLNRVVMR	inactive
STVRVWHCLFFFLIGVHNCC	inactive
HGGIHCYFFYSYGDLEKEIL	2.44
PIRSNVAMIPDD	inactive
TQLNTFYSVITSSFMIDFC	inactive
GSMFFNVC	0.254
NVIMCLRCQY	2.03

Exercise: Fill in the blank: the reported amyloid nucleation score of FCEDSRMSYKFYVSCIFAHS is ____.
Key: 0.636

Exercise: Fill in the blank: the reported amyloid nucleation score of HINISFISYYRRRMYYNVCG is ____.
Key: 1.62

Exercise: Fill in the blank: the reported amyloid nucleation score of VVDLIRNCKDRTVDLLDGIA is ____.
Key: inactive

Exercise: Fill in the blank: the reported amyloid nucleation score of YCPRLRVRVCWFGTSSLDFQ is ____.
Key: 0.862

Exercise: Fill in the blank: the reported amyloid nucleation score of RHVLQILLSKKRDATMLPNY is ____.
Key: inactive

Exercise: Fill in the blank: the reported amyloid nucleation score of NMIKPSFFIIVVVNTQGFDA is ____.
Key: 2.97

Exercise: Fill in the blank: the reported amyloid nucleation score of RANRQQGVGTKQREGHNTVG is ____.
Key: inactive

Exercise: Fill in the blank: the reported amyloid nucleation score of CSGTSSFRDLTCGCRHCFVG is ____.
Key: 1.3

Exercise: Fill in the blank: the reported amyloid nucleation score of SVHPGTRG is ____.
Key: inactive

* * *

experiment: amyloid nucleation score (Sup35N fusion, yeast selection) (log enrichment); library NNK1; higher = more nucleation; inactive = no reads after selection
Recorded amyloid nucleation score, one value per entry.
Form rule: numeric answer, no unit written next to it.

SUBSTANCE	amyloid nucleation score
ATPMFNVPVHRCVKKV	-0.206
TNHDMAINLVQQLDC	1.67
IYWCMM	7.12
RFSWPWTDYNMKNYA	-0.119
DPVTDVFG	-0.541
MRSMGLCTTGCQIDSRRVRW	0.947

Exercise: Fill in the blank: the reported amyloid nucleation score of CRSSHE is ____.
Key: 0.109

Exercise: Fill in the blank: the reported amyloid nucleation score of SRVNDQCVLSSWR is ____.
Key: 0.47

Exercise: Fill in the blank: the reported amyloid nucleation score of VRKCRVNYGENGFKYRTRTM is ____.
Key: 0.739

Exercise: Fill in the blank: the reported amyloid nucleation score of SCLWGMRLKL is ____.
Key: -0.366

Exercise: Fill in the blank: the reported amyloid nucleation score of HSCAFNESHVFMHILCVISQ is ____.
Key: -0.319

* * *

experiment: amyloid nucleation score (Sup35N fusion, yeast selection) (log enrichment); library NNK2; higher = more nucleation; inactive = no reads after selection

ENTRY_SEQUENCE	amyloid nucleation score
DNDCHCSWENISYLWGHLRG	inactive
CNFKINRAHNELPLDDLRNF	inactive
NLLWYKLNLNTYVACAIKWW	0.198

* * *

experiment: amyloid nucleation score (Sup35N fusion, yeast selection) (log enrichment); library NNK1; higher = more nucleation; inactive = no reads after selection
Recorded amyloid nucleation score, one value per entry.
Form rule: numeric answer, no unit written next to it.

# annotated cases, reported amyloid nucleation score shown
SUBSTANCE	PROPERTY_LABEL	REPORTED_RESULT
GQDDYLWRRSGLDHNHSSSS	amyloid nucleation score	-0.568
VAEWRSMNVGVGRATIEGLS	amyloid nucleation score	0.579
ADILWARFLWMSEGIH	amyloid nucleation score	0.054
SQAMTPNGVTSLLFTN	amyloid nucleation score	-0.236

Exercise: Fill in the blank: the reported amyloid nucleation score of MKGARFARS is ____.
Key: 0.91

Exercise: Fill in the blank: the reported amyloid nucleation score of QTSSFFCSV is ____.
Key: -2.12

Exercise: Fill in the blank: the reported amyloid nucleation score of TLFLLVSNVIAEFLFWIVCP is ____.
Key: 0.212

Exercise: Fill in the blank: the reported amyloid nucleation score of FYVRCREMSRGVWWSTSVR is ____.
Key: -0.188

* * *

assay: amyloid nucleation score (Sup35N fusion, yeast selection) (log enrichment); library NNK1; higher = more nucleation; inactive = no reads after selection
If the reported amyloid nucleation score equals or exceeds 0.6, assign T. If not, assign F.

Use the examples below as a reference point.
SUBSTANCE	CAT
PCGEKD	F
TLCERGPPMMYCKC	F
AYNVVHSSLGTKGVRGSCAT	F
CNRPGF	F
KVKANILVFLTKLSMRPTKP	T
LYAHYRADVHEEKSLYYVIA	F
DRTTNVEYWLGAEMLSSRTV	F
YGTVTGEIIYFLSYLVIMRM	F
VVSRRVYDYTMDGLWGQ	F
PYSQFANLSIYVMDMMRGIR	T

Exercise: Evaluate NGCDIFSFGFYLLILFSLIQ : amyloid nucleation score at minimum 0.6?
Key: F

Exercise: Evaluate TDGIGYLGTWMWLWRGDGVR : amyloid nucleation score at minimum 0.6?
Key: T

* * *

experiment: amyloid nucleation score (Sup35N fusion, yeast selection) (log enrichment); library NNK2; higher = more nucleation; inactive = no reads after selection
PROPERTY_LABEL: amyloid nucleation score
Form rule: numeric answer, no unit written next to it.

ENTRY_SEQUENCE	amyloid nucleation score
CVAVNLCVAALV	-0.049
LISVSTRKCVIIG	-0.326

Exercise: Fill in the blank: the reported amyloid nucleation score of TNGRCVELVMMYKYSLFVGD is ____.
Key: 1.05

* * *

assay: amyloid nucleation score (Sup35N fusion, yeast selection) (log enrichment); library NNK2; higher = more nucleation; inactive = no reads after selection
The following ranges of amyloid nucleation score define the classes used here: lowest: < -0.7; middle: ≥ -0.7 and < 0.7; highest: ≥ 0.7

Use the examples below as a reference point.
SUBSTANCE	CAT
VNLSTGSRDLRGYWTTPIFQ	lowest
SFIVRRFSSCLHLFGDSEGY	middle
VDSTFSHSSSFWELYRPTHL	lowest

Exercise: Given KMVYGLQGWLGLGSTVFWSP , name the class its amyloid nucleation score places it in.
Key: highest

Exercise: Given MSLTIWGICRCKQ , name the class its amyloid nucleation score places it in.
Key: middle

Exercise: Given LWIYRVAYFGFLNYKFSVFL , name the class its amyloid nucleation score places it in.
Key: lowest

Exercise: Given DYMDAYGYINRGDPGLIVEV , name the class its amyloid nucleation score places it in.
Key: middle

Exercise: Given NLGYYTG , name the class its amyloid nucleation score places it in.
Key: lowest

Exercise: Given LGLAVKSRTPDLTGGPRASE , name the class its amyloid nucleation score places it in.
Key: highest

Exercise: Given LRMYCRVTWSISYVSSSPVL , name the class its amyloid nucleation score places it in.
Key: highest

Exercise: Given IFPLDQLQIFWLSLTMTMQL , name the class its amyloid nucleation score places it in.
Key: lowest

* * *

experiment: amyloid nucleation score (Sup35N fusion, yeast selection) (log enrichment); library NNK1; higher = more nucleation; inactive = no reads after selection
Recorded amyloid nucleation score, one value per entry.
Form rule: numeric answer, no unit written next to it.

# annotated cases, reported amyloid nucleation score shown
SUBSTANCE	amyloid nucleation score
YCVVFYP	1.66
LMGDLYGSLRMCLVGSRWLL	0.082
CLGYGYSSEDTQTSLCSGVE	-0.642
IAVDTRVGASYVCGSS	-0.535
SILFATAFMPVGLRLNDVLS	-0.003

Exercise: Fill in the blank: the reported amyloid nucleation score of LHETFVCR is ____.
Key: -0.267

Exercise: Fill in the blank: the reported amyloid nucleation score of YSRIARLDVKRVGHEPDVRL is ____.
Key: -0.921

Exercise: Fill in the blank: the reported amyloid nucleation score of VLFIWTLF is ____.
Key: 0.341

Exercise: Fill in the blank: the reported amyloid nucleation score of WFRRLVTFSYNGWSYLSD is ____.
Key: -0.779

Exercise: Fill in the blank: the reported amyloid nucleation score of SSDRAYVFCTRNMEVREGSK is ____.
Key: -0.835

Exercise: Fill in the blank: the reported amyloid nucleation score of GMDTGNITAQSMAGLPRRAS is ____.
Key: -0.299

Exercise: Fill in the blank: the reported amyloid nucleation score of LRDISEH is ____.
Key: -0.588

Exercise: Fill in the blank: the reported amyloid nucleation score of VTLSLMCWNFALRFVSLGRS is ____.
Key: 4.02

Exercise: Fill in the blank: the reported amyloid nucleation score of KETSGYRFYRMANLP is ____.
Key: -0.21
